# System: SAMD9 promoter
# Protocol summary: High-throughput luciferase reporter screen in HeLa line stably expressing 585 bp SAMD9 promoter fragment
# Type: cell-based, human
# Assay context: Homo sapiens, HeLa; fold increase in promoter activity by luciferase assay vs cells treated with vehicle only; test drugs 10 μM, 24 hours; read-out: SAMD9 expression fold change in HeLa reporter assay
Structures can show the parent of a compound that is named as a salt.
# fold induction at 10 µM >= 3 gives class 1, anything below gives class 0

Hi team, for COc1cc2c3c(n(C)c(=O)c2cc1OC)-c1cc2c(cc1C3=O)OCO2 , is the recorded fold induction at 10 µM at or above 3? class 0

Hi team, for OC(CN1CCCCC1)c1ccc(/C=C/c2ccc(Cl)cc2)cc1 (stereo not shown) , is the recorded fold induction at 10 µM at or above 3? class 1

Hi team, for Cc1c2cnccc2c(C)c2c1c1ccccc1n2CCOC(=O)c1ccccc1 , is the recorded fold induction at 10 µM at or above 3? class 0

Hi team, for COc1c2c(cc3oc(=O)ccc13)OC(C)(C)C=C2 , is the recorded fold induction at 10 µM at or above 3? class 1

Hi team, for CCN(CC)CCOc1ccccc1/C=C/c1noc2ccccc12 [Compound 601101, hydrochloride] , is the recorded fold induction at 10 µM at or above 3? class 0

Hi team, for CN(C)C(=S)/N=c1\ss/c(=N\C(=S)N(C)C)n1-c1ccc2c(c1)OCO2 , is the recorded fold induction at 10 µM at or above 3? class 1

Hi team, for S=C(Nc1nnc(-c2ccccc2)c(-c2ccccc2)n1)N(/N=C/C=C/c1ccccc1)c1ccccc1 , is the recorded fold induction at 10 µM at or above 3? class 0
